Target: human dopamine D2L receptor (Human D2Long Receptors) (Homo sapiens)
Construct: expressed in transfected cells
Sequence (P14416 whole entry): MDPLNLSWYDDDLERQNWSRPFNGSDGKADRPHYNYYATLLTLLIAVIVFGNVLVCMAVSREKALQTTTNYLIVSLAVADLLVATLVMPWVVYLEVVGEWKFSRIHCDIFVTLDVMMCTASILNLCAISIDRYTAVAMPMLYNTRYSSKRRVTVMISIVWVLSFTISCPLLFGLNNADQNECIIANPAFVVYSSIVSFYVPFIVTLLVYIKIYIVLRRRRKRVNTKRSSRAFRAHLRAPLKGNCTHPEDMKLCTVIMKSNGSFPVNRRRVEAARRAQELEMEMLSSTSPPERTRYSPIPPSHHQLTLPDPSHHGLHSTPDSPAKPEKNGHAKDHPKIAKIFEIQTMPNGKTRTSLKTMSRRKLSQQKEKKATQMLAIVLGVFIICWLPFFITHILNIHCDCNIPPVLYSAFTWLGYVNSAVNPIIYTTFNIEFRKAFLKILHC
Test: Human dopamine D2L receptor binding assay ([3H]N-methyl spiroperidol displacement)
Settings: Table 2; [3H]N-methyl spiroperidol 0.4 nM; CHO membranes; 37° C., 30 min; pH 7.7; read-out: Ki
Structures can show the parent of a compound that is named as a salt.
Ki overview
Write the numeric value and append its unit.

Consider the worked cases shown below.
NC[C@@H]1O[C@H](C2CCN(CCc3ccc(Cl)cc3)CC2)Cc2c1ccc(O)c2O (relative stereo) [Example 14, dihydrochloride] :: 505 nM
COc1cc(C(C)=O)ccc1OCCCN1CCC([C@@H]2Cc3c(ccc(O)c3O)[C@H](CN)O2)CC1 (relative stereo) [Example 31, Dihydrochloride Dihydrate] :: 1100 nM
NC[C@@H]1O[C@H](C2CCN(CCc3ccccc3)CC2)Cc2c1ccc(O)c2O (relative stereo) [Example 4D, Dihydrobromide Sesquihydrate] :: 1090 nM

Consider the additional compound presented here.
Field Ki (entry NC[C@@H]1O[C@H](C2CCN(CCCC(c3ccc(F)cc3)c3ccc(F)cc3)CC2)Cc2c1ccc(O)c2O (relative stereo) [Example 29, Dihydrochloride Dihydrate] ) reads 91.8 nM
